Hey, just so you know, these numbers are from ChEMBL document CHEMBL4219231.

- Assay notes: Thermodynamic solubility of the compound in 0.01 M phosphate buffer at pH 7.4 at 22 degC after 26 hrs by UPLC-DAD-MS analysis
- Format: physicochemical
- Condition details: read-out: Therm_solubility
Readout label: solubility thermodynamic at 26 h

>>> observed("C=CC(=O)NCCCC[C@H](NC(=O)Cc1ccccc1)C(=O)N1CCN(c2cccc(F)n2)CC1")
"645 µM"

* * *

- Assay notes: Inhibition of guinea pig TGase 2 using F-Cad/DMC as substrate preincubated for 30 mins followed by substrate addition measured at 30 secs interval over 900 secs by fluorescence anisotropy assay
- Design: species or system Cavia porcellus
Readout label: Ki (µM)

>>> observed("NCCCCCNC(=S)Nc1ccc2c(c1)C(=O)OC21c2ccc(O)cc2Oc2cc(O)ccc21")
9.15
>>> observed("CCN(CC)c1ccc2c(-c3ccccc3C(=O)N3CCC(C(=O)NCCCCCN)CC3)c3ccc(=[N+](CC)CC)cc-3oc2c1")
7.14
